# EXPERIMENTAL_TARGET: T1, human soluble IL6-R (human, UniProt P08887 20-358)
# T1 chain: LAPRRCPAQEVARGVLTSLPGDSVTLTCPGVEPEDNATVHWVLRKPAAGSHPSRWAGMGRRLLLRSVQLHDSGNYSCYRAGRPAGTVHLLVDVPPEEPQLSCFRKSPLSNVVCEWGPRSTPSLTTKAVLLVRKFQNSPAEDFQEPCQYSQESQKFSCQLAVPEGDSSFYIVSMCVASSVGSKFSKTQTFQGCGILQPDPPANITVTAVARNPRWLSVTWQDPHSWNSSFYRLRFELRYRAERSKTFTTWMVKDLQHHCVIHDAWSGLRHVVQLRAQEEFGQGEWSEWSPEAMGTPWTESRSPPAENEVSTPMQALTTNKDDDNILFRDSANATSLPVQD
# EXPERIMENT: Alphascreen inhibition of IL6/IL6-R interaction
READOUT_LABEL: EC50 (nM)

[[record]]
binder = "IL6R04 (VHH) VHH: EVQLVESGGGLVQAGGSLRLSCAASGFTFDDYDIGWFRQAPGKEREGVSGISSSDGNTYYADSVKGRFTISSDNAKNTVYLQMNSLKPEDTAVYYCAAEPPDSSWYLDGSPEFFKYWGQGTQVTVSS"
readout_label = "EC50"
test_result = 0.18

[[record]]
binder = "IL6R72 (VHH) VHH: EVQLVESGGGLVQPGGSLRLSCAASGFTFSDYDIGWFRQAPGKGREGVSGISSSDGNTYYADSVKGRFTISSDNAKNTVYLQMNSLRPEDTAVYYCAAEPPDSSWYLDGSPEFFKYWGQGTLVTVSS"
readout_label = "EC50"
test_result = 0.16

[[record]]
binder = "IL6R73 (VHH) VHH: EVQLVESGGGLVQPGGSLRLSCAASGFTFDDYDIGWFRQAPGKGREGVSGISSSDGNTYYADSVKGRFTISRDNAKNTVYLQMNSLRPEDTAVYYCAAEPPDSSWYLDGSPEFFKYWGQGTLVTVSS"
readout_label = "EC50"
test_result = 0.0916

[[record]]
binder = "IL6R71 (VHH) VHH: EVQLVESGGGLVQPGGSLRLSCAASGFTFDDYDIGWFRQAPGKGREGVSGISSSDGNTYYADSVKGRFTISSDNAKNTVYLQMNSLRPEDTAVYYCAAEPPDSSWYLDGSPEFFKYWGQGTLVTVSS"
readout_label = "EC50"
test_result = 0.153

[[record]]
binder = "IL6R74 (VHH) VHH: EVQLVESGGGLVQPGGSLRLSCAASGFTFDDYDIGWFRQAPGKGREGVSGISSSDGNTYYADSVKGRFTISSDNAKNTLYLQMNSLRPEDTAVYYCAAEPPDSSWYLDGSPEFFKYWGQGTLVTVSS"
readout_label = "EC50"
test_result = 0.133

